For each entry below, report its activity change, negative = inhibition value.
Assay: AP1 Signaling Pathway (AID 357);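 note: ME-180 reporter cells stimulated with EGF at its EC50 level; % is set by controls: 0 for no effect and ±100 for the full control effect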
Details: ME-180 (cervical carcinoma) AP-1-bla reporter, EGF-induced, beta-lactamase ratio, 5 h; at 7.69 µM (top of the series) unless noted
Results filed as inconclusive are left out. Activity calls are given as the source filed them. Calls come from the whole dose curve; as a rule, active = well fitted curve in either direction with a large enough effect (not every such curve was filed as active); inconclusive = small, poorly fitted or top-dose-only effect, or another doubt; inactive = flat fitted curve, though single readings scatter.

Data point: N=c1sc2ccccc2n1CCS (tested in a mixture with another compound) ; activity change, negative = inhibition = 6.12% (inactive)

Data point: O=C(O)c1cc(N=Cc2ccccc2O)cc(C(=O)O)c1 ; activity change, negative = inhibition = -3.29% (inactive)

Data point: CC1(C)N=C(N)N=C(N)N1c1cccc(CSc2ccccc2)c1 ; activity change, negative = inhibition = -4.06% (inactive)

Data point: O=C(O)c1[nH]c2c([N+](=O)[O-])cc([N+](=O)[O-])cc2c1C(=O)O ; activity change, negative = inhibition = 0.189% (inactive)

Data point: c1ccc2c[n+](CCCC[n+]3ccc4ccccc4c3)ccc2c1 ; activity change, negative = inhibition = 9.12% (inactive)

Data point: CC(C)(C)C1CCC2(CC1)CCN(CCCN1CCOCC1)CC2 ; activity change, negative = inhibition = 11.9% (inactive)

Data point: O=S(=O)(O)c1cc(O)c2c(O)c(N=Nc3cccc4ccccc34)c(S(=O)(=O)O)cc2c1 ; activity change, negative = inhibition = -2.93% (inactive)

Data point: Nc1ccccc1CCCC(=O)O ; activity change, negative = inhibition = -5.22% (inactive)

Data point: CN(C)CCCN1CCC2(CCC(C(C)(C)C)CC2)CC1 ; activity change, negative = inhibition = -6.54% (inactive)

Data point: O=C(CCN1CCCCC1)c1csc2ccccc12 ; activity change, negative = inhibition = -4.73% (inactive)

Data point: O=C1c2ccccc2C(=O)c2c(Nc3cc4c5c(ccc6c7ccc8c9c(cc(Nc%10cccc%11c%10C(=O)c%10ccccc%10C%11=O)c(c3c56)c97)-c3ccccc3C8=O)C(=O)c3ccccc3-4)cccc21 ; activity change, negative = inhibition = 11.6% (inactive)

Data point: NNC(=O)CCSc1ccccc1 ; activity change, negative = inhibition = 7.31% (inactive)

Data point: CN1[C@@H]2CC(OC(=O)[C@@H](CO)c3ccccc3)C[C@@H]1[C@H]1O[C@H]12 (some centres not stated) ; activity change, negative = inhibition = 20.3% (inactive)

Data point: O=C(O)[C@@H](S)[C@H](S)C(=O)O ; activity change, negative = inhibition = 8.2% (inactive)

Data point: COc1ccc(C(=O)N2CCC[C@@]3(CCN(c4ccccc4)C3)C2)cc1 ; activity change, negative = inhibition = -5.32% (inactive)

Data point: NS(=O)(=O)c1ccc(N=Nc2ccc[nH]c2=O)cc1 ; activity change, negative = inhibition = -1.61% (inactive)

Data point: C[N+](C)(C)c1ccc([C@H](N)C(=O)O)cc1 ; activity change, negative = inhibition = -0.163% (inactive)

Data point: COCCn1c(=O)c(-c2ccccc2)nc2cnc(Nc3ccccc3)nc21 ; activity change, negative = inhibition = -24.1% (inactive)

Data point: CC(=O)CC(=O)Nc1ccc2ccccc2c1 ; activity change, negative = inhibition = 6.48% (inactive)

Data point: OC[C@@H]1NC[C@@H](O)[C@H]1O ; activity change, negative = inhibition = 0.107% [at 38 µM] (inactive)

Data point: Clc1ccc(-c2nnc(-c3cccc4ccccc34)o2)cc1Cl ; activity change, negative = inhibition = -2.21% (inactive)

Data point: CCC[C@@H]1O[C@@H]2C[C@@H]3[C@@H]4CCC5=CC(=O)C=C[C@@]5(C)[C@H]4[C@H](O)C[C@@]3(C)[C@@]2(C(=O)CO)O1 ; activity change, negative = inhibition = 8.13% [at 38 µM] (inactive)

Origin of the recorded values: PubChem BioAssay (NCATS)
